- Assay Procedure: qHTS assay to identify small molecule agonists of the farnesoid-X-receptor (FXR) signaling pathway - cell viability counter screen (AID 743218); also: nearly all actives have a fitted effect of over 45% in size
- Stated Conditions: FXR-bla HEK293T viability, CellTiter-Glo luminescence, 16 h; series mostly up to 62.6 µM
Records with an inconclusive call do not appear. Calls of active or inactive are those of the source. Calls follow the shape of the dose curve; as a rule, active = well fitted cell-killing curve with a large enough effect in the repeat runs; inconclusive = weak or mixed curves, or effect the other way; inactive = no such curve, though single readings can be large or run the other way.
Choose one outcome from this list and give only that: active, inactive

Example entries and their recorded answers appear below.
Compound: CCC(C)COC(C)=O (stereo not drawn)
Label: inactive
//
Compound: C=C(C)C(=O)OCCCCCCCCCCCCC
Label: inactive
//
Compound: O=[N+]([O-])c1ccc(O/N=C/c2cc(Br)c(O)c(Br)c2)c([N+](=O)[O-])c1
Label: inactive

Attention now shifts to the item below.
**Q:** # outcome recorded in this test, key = CC1CC(OC(=O)C(O)c2ccccc2)CC(C)(C)N1C (stereo not drawn)
**A:** inactive

====

- Assay Procedure: qHTS assay to identify small molecule antagonists of the retinoic acid receptor (RAR) signaling pathway (AID 1159552; also: nearly all actives have a fitted effect of over 50% in size)
- Stated Conditions: C3RL4 RARE luciferase reporter, retinol-stimulated, 6 h; series mostly up to 92.4 µM
Inconclusive results are not listed. Calls of active or inactive are those of the source. Calls come from the whole dose curve; as a rule, active = well fitted inhibition curve with a large enough effect in the repeat runs; inconclusive = weak or mixed curves, or effect the other way; inactive = no such curve, though single readings can be large or run the other way.
A correct response names exactly one class from yes (1) for active, no (0) for inactive

**Q:** Outcome logged for CO/N=C(/C(=O)N[C@@H]1C(=O)N2C(C(=O)O)=C(COC(N)=O)CS[C@H]12)c1ccco1 in this assay:
**A:** no (0)

**Q:** Also CC[N+](CC)(CCNC(=O)C(=O)NCC[N+](CC)(CC)Cc1ccccc1Cl)Cc1ccccc1Cl , if possible.
**A:** no (0)

**Q:** Then what about the molecule C=CC(=O)[O-].C=CC(=O)[O-].[Zn+2] ?
**A:** no (0)

**Q:** Same read-out for CCC(=O)C1CC(C(C)C)CC=C1C (stereo unspecified) ?
**A:** no (0)

**Q:** Also, Cc1ccc2c(Br)cc(Br)c(O)c2n1 please.
**A:** no (0)

**Q:** Can you handle COC(=O)c1nc(Cl)c(Cl)nc1N next?
**A:** yes (1)

**Q:** What do we get for COc1cc(C(=O)NCCCCCC(=O)O)cc(OC)c1OC ?
**A:** no (0)

**Q:** Input O=C(O)c1cccc(-c2noc(-c3ccccc3F)n2)c1
**A:** yes (1)

**Q:** Then this molecule: CC(C)=CC(=O)C=C(C)C
**A:** no (0)

**Q:** Same read-out for O=c1c(O)c(-c2ccc(O)cc2)oc2cc(O)cc(O)c12 ?
**A:** no (0)

**Q:** Ok, now NCCNCCO
**A:** no (0)

**Q:** Another molecule to check: CC(=O)c1cc2ccccc2s1
**A:** no (0)

**Q:** Can you check Nc1ccc(N=Nc2ccccc2)c(N)c1 next?
**A:** no (0)

**Q:** Same read-out for CCOC(=O)/C=C/C(=O)OCC ?
**A:** no (0)

**Q:** Can you check COc1ccccc1Oc1c(NS(=O)(=O)c2ccc(C(C)(C)C)cc2)nc(-c2ncccn2)nc1OCCO next?
**A:** no (0)

**Q:** Entry to check: Nc1ncnc2c1ncn2[C@H]1CC[C@@H](CO)O1
**A:** no (0)

====

- Assay Procedure: qHTS assay for small molecules that induce genotoxicity in human embryonic kidney cells expressing luciferase-tagged ATAD5 (AID 651632); also: nearly all actives have a fitted effect of over 15% in size
- Stated Conditions: HEK293T ATAD5-luciferase induction, 16 h; series mostly up to 83.3 µM
Results filed as inconclusive are left out. Active and inactive are the calls of the source. The call rests on the fitted dose curve; in most records, active means well fitted activation curve with a large enough effect in the repeat runs; inconclusive means weak or mixed curves; inactive means no such curve, though single readings can be large or run the other way.
One label from this list, please: active, inactive

These solved cases illustrate the format of a correct answer.
Compound: Cc1cc2c(OCC(CNC(C)(C)C)OC(=O)c3ccccc3)cccc2[nH]1 (configuration not stated)
Label: inactive

Compound: CCOC(=O)c1ccc(I)cc1
Label: inactive

**Q:** Please let me know the test result on file for OC(CCN1CCCC1)(c1ccccc1)C1CCCCC1 (configuration not stated) .
**A:** inactive

**Q:** Try COC(=O)CCS next.
**A:** inactive

**Q:** Let us now turn to COc1ccccc1NC(=O)c1cc2ccccc2cc1O
**A:** inactive

**Q:** Please do the same for COC(=O)C1=C(C)NC(C)=C(C(=O)O[C@@H]2CCCN(Cc3ccccc3)C2)[C@@H]1c1cccc([N+](=O)[O-])c1 as well.
**A:** inactive

**Q:** // query: Nc1ccc(N=Nc2ccccc2)c(N)c1
**A:** active

====

- Assay Procedure: qHTS assay to identify small molecule antagonists of the thyroid receptor (TR) signaling pathway (AID 743065); also: nearly all actives have a fitted effect of over 55% in size
- Stated Conditions: GH3.TRE-Luc, T3-stimulated luciferase inhibition, 23.5 h; series mostly up to 70.3 µM
Inconclusive results are not listed. Activity calls are given as the source filed them. Calls follow the shape of the dose curve; as a rule, active = well fitted inhibition curve with a large enough effect in the repeat runs; inconclusive = weak or mixed curves; inactive = no such curve, though single readings can be large or run the other way.
Hi! Could you answer with just one of these? T for active, F for inactive

Examples with answers:
Compound: CC(CCC(=O)O)C(=O)O (stereo not given)
Label: F
//
Compound: O=C(/C=C/c1ccc(O)c(O)c1)O[C@@H]1C[C@@](OC(=O)/C=C/c2ccc(O)c(O)c2)(C(=O)O)C[C@@H](O)[C@@H]1O
Label: F
//
Compound: OCCOCC#CCOCCO
Label: F
//
Compound: CC(=O)OCCN(CCOC(C)=O)c1ccc(N=Nc2ccc([N+](=O)[O-])cc2C#N)cc1
Label: T
//
Compound: Oc1cccc(O)c1O
Label: F

**Q:** Record request — test call for CC(C)C=O
**A:** F

**Q:** Same lookup for C1C[C@@H]2[C@H]3CC[C@H](C3)[C@@H]2C1 , please.
**A:** F

**Q:** CN1C(C(=O)Nc2ccccn2)=C(O)c2sccc2S1(=O)=O , same question.
**A:** F

====

- Assay Procedure: qHTS assay to identify small molecule antagonists of the estrogen related receptor (ERR) signaling pathway from Tox21 library - cell viability counter screen (AID 1224834); also: nearly all actives have a fitted effect of over 30% in size
- Stated Conditions: ERR reporter cells viability, CellTiter-Fluor, 17.5 h; series mostly up to 92.4 µM
Results filed as inconclusive are left out. Activity calls are given as the source filed them. The call rests on the fitted dose curve; in most records, active means well fitted cell-killing curve with a large enough effect in the repeat runs; inconclusive means weak or mixed curves; inactive means flat fitted curve, though single readings scatter.
Tick one outcome: label 1 for active, label 0 for inactive

A selection of reference data follows.
Compound: Oc1cc2c(cc1O)[C@H]1c3ccc(O)c(O)c3OC[C@@]1(O)C2
Label: label 1
--
Compound: C=C1CCC2CC1C2(C)C (configuration not stated)
Label: label 0

**Q:** Which outcome did this test record for the compound CCCCCCCCN ?
**A:** label 0

**Q:** Another compound: O=C1CCCCCCCCCCOCCCCO1
**A:** label 0

**Q:** Another: CCCCCC#CC(=O)OC
**A:** label 0

**Q:** Could you do the same for COC(=O)CCS , please?
**A:** label 0

**Q:** Same question for C[C@@H](CN(C)C)CN1c2ccccc2Sc2ccccc21 please.
**A:** label 1

**Q:** And O=[N+]([O-])c1ccc(O/N=C/c2cc(Br)c(O)c(Br)c2)c([N+](=O)[O-])c1 ?
**A:** label 1

====

- Assay Procedure: A CellTox Green Cytotoxicity Assay to monitor cytotoxicity in HepG2 cells - 8 hour (AID 1224890); also: nearly all actives have a fitted effect of over 45% in size
- Stated Conditions: CellTox Green fluorescence; series mostly up to 76.8 µM
Records with an inconclusive call do not appear. Activity calls are given as the source filed them. Calls come from the whole dose curve; as a rule, active = well fitted activation curve with a large enough effect in the repeat runs; inconclusive = weak or mixed curves; inactive = flat fitted curve, though single readings scatter.
Allowed answers: active, inactive

Completed entries (count: 10):
Compound: O=C=Nc1ccc(Cl)c(Cl)c1
Label: inactive

Compound: CC1=C(Br)C(=O)C(Br)=C/C1=C(/c1ccccc1S(=O)(=O)O)c1cc(Br)c(O)c(Br)c1C
Label: inactive

Compound: CCCCC(CC)CN (stereo not drawn)
Label: inactive

Compound: CCOc1ccc(Cc2nccc3cc(OCC)c(OCC)cc23)cc1OCC
Label: inactive

Compound: COC(=O)[C@H]1[C@H]2C[C@@H]3c4[nH]c5cc(OC)ccc5c4CCN3C[C@H]2C[C@@H](OC(=O)/C=C/c2ccc(O)c(OC)c2)[C@@H]1OC
Label: active

Compound: CC1CC(OC(=O)C(O)c2ccccc2)CC(C)(C)N1C (stereo not drawn)
Label: inactive

Compound: COc1cc(N)c(Cl)cc1C(=O)NC1CCN(CCCOc2ccc(F)cc2)CC1OC (stereo not drawn)
Label: inactive

Compound: CC(C)=CCC1C(=O)N(c2ccccc2)N(c2ccccc2)C1=O
Label: inactive

Compound: NC(=O)c1ccncc1
Label: inactive

Compound: N#CCCN(CCO)CCO
Label: inactive

**Q:** Recorded test call requested for CC(C)C(O)(c1ccc(OC(F)(F)F)cc1)c1cncnc1 (stereo not drawn)
**A:** inactive

**Q:** Try this compound too: Cc1cc(O)c(C)c(C)c1O
**A:** inactive

**Q:** Next compound up: O=[N+]([O-])c1ccc(Nc2ccc(Nc3ccccc3)c(S(=O)(=O)O)c2)c([N+](=O)[O-])c1
**A:** inactive

**Q:** And O=C1c2ccccc2C(=O)C1c1ccc(Br)cc1 ?
**A:** inactive

**Q:** Try this compound next: O=C1Cc2cc(Cl)ccc2N1
**A:** inactive

**Q:** Same for C=CCc1ccccc1OCC(O)CNC(C)C (stereo not drawn)
**A:** inactive

**Q:** Lookup O=C1c2ccccc2C(=O)N1CCc1noc(-c2ccc(CN3CCCCCC3)s2)n1
**A:** active

**Q:** Please give the result for O=c1[nH]c2ccc(Cl)cc2o1 too.
**A:** inactive
